biological target: Alpha-2A adrenergic receptor (Homo sapiens); test: Binding affinity towards recombinant human alpha-2A adrenergic receptor was determined using [3H]MK-912 as radioligand
Sequence (P08913 whole entry): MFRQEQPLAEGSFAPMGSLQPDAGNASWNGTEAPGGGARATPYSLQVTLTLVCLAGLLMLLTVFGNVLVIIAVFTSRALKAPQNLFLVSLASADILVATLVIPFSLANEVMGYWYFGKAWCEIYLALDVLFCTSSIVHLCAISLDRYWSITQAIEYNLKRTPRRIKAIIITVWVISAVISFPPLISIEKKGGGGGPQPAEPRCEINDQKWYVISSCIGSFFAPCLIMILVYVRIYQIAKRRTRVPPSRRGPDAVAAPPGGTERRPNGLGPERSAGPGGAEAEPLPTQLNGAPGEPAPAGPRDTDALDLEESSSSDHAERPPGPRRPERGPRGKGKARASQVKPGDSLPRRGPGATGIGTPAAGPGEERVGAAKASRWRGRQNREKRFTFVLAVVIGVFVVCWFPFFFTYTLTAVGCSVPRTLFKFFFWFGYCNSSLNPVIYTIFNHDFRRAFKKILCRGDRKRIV
EXPERIMENTAL_READOUT: pKi
Note on units: pKi is unitless, being -log10 of a concentration expressed in mol/L.

# input Report pKi for CCOc1ccccc1OCCN[C@H](C)Cc1ccc(OC)c(S(N)(=O)=O)c1 please.
# output 7.20

###

target: Alpha-2A adrenergic receptor (Homo sapiens) (UniProt P08913); experiment: Compound at 1 uM was tested for the inhibition of radioligand [3H]MK-912 binding to recombinant human alpha-2A adrenergic receptor
Sequence (P08913 whole entry): as above
Parameter: inhibition. Scope: all listed entries.

Cc1ccc(N2C(=O)c3ccc(C(=O)NCCCN4CCN(c5ccccc5OC(C)C)CC4)cc3C2=O)cc1 = 87%
CC(C)Oc1ccccc1N1CCN(CCCNC(=O)c2ccc3c(c2)C(=O)N(c2cccc(F)c2)C3=O)CC1 = 78%
Cc1ccc(N2C(=O)c3ccc(C(=O)NC[C@H](O)CN4CCN(c5ccccc5OC(C)C)CC4)cc3C2=O)cc1 = 19%
CC(C)Oc1ccccc1N1CCN(C[C@@H](O)CNC(=O)c2ccc3c(c2)C(=O)N(c2cccc(F)c2)C3=O)CC1 = 29%
CCOc1ccccc1OCCN[C@H](C)Cc1ccc(OC)c(S(N)(=O)=O)c1 = 82%

# input Report inhibition for CC(C)Oc1ccccc1N1CCN(C[C@@H](O)CNC(=O)c2ccc3c(c2)C(=O)N(c2ccc(N(C)C)cc2)C3=O)CC1 please.
# output 18%

# input Lookup COc1ccc(N2C(=O)c3ccc(C(=O)NCCCN4CCN(c5ccccc5OC(C)C)CC4)cc3C2=O)cc1
# output 80%

###

Parameter: pKB. Scope: all listed entries.
organism: Rattus norvegicus; experiment: Antagonist dissociation equilibrium constant was tested against rat aorta contraction; assay type: functional
Reply briefly: the number, and no unit.

Look over these answered cases.
Cc1ccc(N2C(=O)c3ccc(C(=O)NC[C@H](O)CN4CCN(c5ccccc5OC(C)C)CC4)cc3C2=O)cc1 = 5.9
CC(C)Oc1ccccc1N1CCN(C[C@@H](O)CNC(=O)c2ccc3c(c2)C(=O)N(c2cccc(F)c2)C3=O)CC1 = 6.47
CC(C)Oc1ccccc1N1CCN(C[C@@H](O)CNC(=O)c2ccc3c(c2)C(=O)N(c2ccc(N(C)C)cc2)C3=O)CC1 = 5.84

# input Report pKB for CCOc1ccccc1OCCN[C@H](C)Cc1ccc(OC)c(S(N)(=O)=O)c1 [TAMSULOSIN] please.
# output 10.76

###

Parameter: pKB. Scope: all listed entries.
species on record: Rattus norvegicus; test: Antagonist dissociation equilibrium constant was tested against rat prosta contraction; type: functional
Reply briefly: the number, and no unit.

Look over these answered cases.
CC(C)Oc1ccccc1N1CCN(C[C@@H](O)CNC(=O)c2ccc3c(c2)C(=O)N(c2ccc(N(C)C)cc2)C3=O)CC1 = 7.39
Cc1ccc(N2C(=O)c3ccc(C(=O)NC[C@H](O)CN4CCN(c5ccccc5OC(C)C)CC4)cc3C2=O)cc1 = 6.78
CCOc1ccccc1OCCN[C@H](C)Cc1ccc(OC)c(S(N)(=O)=O)c1 = 9.33

# input Report pKB for CC(C)Oc1ccccc1N1CCN(C[C@@H](O)CNC(=O)c2ccc3c(c2)C(=O)N(c2cccc(F)c2)C3=O)CC1 please.
# output 7.81

###

target: Adrenergic receptors; alpha-1 A & B (Homo sapiens) (UniProt P35348+P35368); experiment: Ratio of binding affinity towards Alpha1b to Alpha-1A; assay type: protein assay
EXPERIMENTAL_READOUT: Ratio

Look over these answered cases.
CC(C)Oc1ccccc1N1CCN(CC(O)CNC(=O)c2ccc3c(c2)C(=O)N(c2cccc(F)c2)C3=O)CC1 (centres undefined) = > 1220
CC(C)Oc1ccccc1N1CCN(CC(O)CNC(=O)c2ccc3c(c2)C(=O)N(c2ccc(C(C)(C)C)cc2)C3=O)CC1 (centres undefined) = > 650
CC(C)Oc1ccccc1N1CCN(CC(O)CNC(=O)c2ccc3c(c2)C(=O)N(c2ccc([N+](=O)[O-])cc2)C3=O)CC1 (centres undefined) = > 1110

# input Report Ratio for Cc1cccc(N2C(=O)c3ccc(C(=O)NCC(O)CN4CCN(c5ccccc5OC(C)C)CC4)cc3C2=O)c1 (centres undefined) please.
# output > 2220

###

biological target: Adrenergic receptors; alpha-1 A & B (Homo sapiens) (UniProt P35348+P35368); assay: Ratio of binding affinity towards Alpha1b to Alpha-1A; type: protein assay
EXPERIMENTAL_READOUT: Ratio

Cc1ccc(N2C(=O)c3ccc(C(=O)NCCCN4CCN(c5ccccc5OC(C)C)CC4)cc3C2=O)cc1 = > 12500

Here is the next item to consider.
# input Report Ratio for COC(CNC(=O)c1ccc2c(c1)C(=O)N(c1cccc(F)c1)C2=O)CN1CCN(c2ccccc2OC(C)C)CC1 (stereo not drawn) please.
# output > 290

###

target: Adrenergic receptors; alpha-1 A & B (Homo sapiens) (UniProt P35348+P35368); test: Ratio of binding affinity towards Alpha1b to Alpha-1A; type: protein assay
Parameter: Ratio. Scope: all listed entries.

CC(C)Oc1ccccc1N1CCN(C[C@@H](O)CNC(=O)c2ccc3c(c2)C(=O)N(c2cccc(F)c2)C3=O)CC1 = > 1960
Cc1ccc(N2C(=O)c3ccc(C(=O)NCC(O)CN4CCN(c5ccccc5OC(C)C)CC4)cc3C2=O)cc1 (stereo unspecified) = > 3030
CC(C)Oc1ccccc1N1CCN(C[C@@H](O)CNC(=O)c2ccc3c(c2)C(=O)N(c2ccc(N(C)C)cc2)C3=O)CC1 = > 6060
CC(C)Oc1ccccc1N1CCN(CCCNC(=O)c2ccc3c(c2)C(=O)N(c2ccc(O)cc2)C3=O)CC1 = 1270
COc1cc(N2C(=O)c3ccc(C(=O)NCC(O)CN4CCN(c5ccccc5OC(C)C)CC4)cc3C2=O)cc(OC)c1OC (stereo unspecified) = > 1640

# input Recorded Ratio for Cc1ccc(N2C(=O)c3ccc(C(=O)NC[C@H](O)CN4CCN(c5ccccc5OC(C)C)CC4)cc3C2=O)cc1 with Adrenergic receptors; alpha-1 A & B (Homo sapiens) (UniProt P35348+P35368), please?
# output > 5690
